Data credit: ChEMBL document CHEMBL1131607

Experimental target: UniProt P41144
Sequence (P41144 whole entry): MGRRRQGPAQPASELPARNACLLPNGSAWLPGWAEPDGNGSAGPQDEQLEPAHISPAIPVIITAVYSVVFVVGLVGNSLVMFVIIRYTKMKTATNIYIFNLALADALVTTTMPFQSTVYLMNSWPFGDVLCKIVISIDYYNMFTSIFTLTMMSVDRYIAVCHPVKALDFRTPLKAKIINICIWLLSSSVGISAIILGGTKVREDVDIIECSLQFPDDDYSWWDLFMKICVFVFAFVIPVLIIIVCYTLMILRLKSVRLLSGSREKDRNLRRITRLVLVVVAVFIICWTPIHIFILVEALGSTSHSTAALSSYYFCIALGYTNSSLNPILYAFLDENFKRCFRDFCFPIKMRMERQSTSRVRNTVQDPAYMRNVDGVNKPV
Run description: Antagonist activity against electrically stimulated guinea pig ileum Opioid receptor kappa 1
Format: functional, tissue-based
Property measured: IC50 ratio
The answer should be a number; do not append a unit.

# return IC50 ratio for `CN1CC[C@]23c4c5ccc(O)c4O[C@H]2C(=O)[C@@H](c2ccccc2)C[C@H]3[C@H]1C5` , test system: UniProt P41144 0.75

State measured IC50 ratio of the compound CN1CC[C@]23c4c5ccc(O)c4O[C@H]2[C@@H](O)[C@@H](c2ccccc2)CC3[C@H]1C5 (stereo partly specified) with UniProt P41144. 1.9

Find IC50 ratio for CN1CC[C@]23c4c5ccc(O)c4O[C@H]2C(=O)C(c2ccccc2)(c2ccccc2)CC3[C@H]1C5 (stereo partly specified) on UniProt P41144 and write it down. 1.01

Answer briefly: IC50 ratio recorded on UniProt P41144 for CN1CC[C@]23c4c5ccc(O)c4O[C@H]2[C@@H](O)[C@@H](c2cccc([N+](=O)[O-])c2)CC3[C@H]1C5 (stereo partly specified) 1.05

Supply IC50 ratio measured with UniProt P41144 for CN1CC[C@]23c4c5ccc(O)c4O[C@H]2[C@@H](O)[C@@H](c2ccc(Br)cc2)CC3[C@H]1C5 (stereo partly specified) . 1.76

Given CC(=O)O[C@H]1[C@@H](c2ccccc2)CC2[C@H]3Cc4ccc(O)c5c4[C@@]2(CCN3C)[C@H]1O5 (stereo partly specified) , report its IC50 ratio on UniProt P41144. 1.08

###

Species on record: Cavia porcellus
Run description: Compound was tested for opioid agonist activity in the electrically stimulated guinea pig ileal longitudinal muscle(GPI)
Type: functional, Muscle tissue
Property measured: Max response (%)
Express the result in % but write the number alone.

Tell me measured Max response for CN1CC[C@]23c4c5ccc(O)c4O[C@H]2[C@@H](O)[C@@H](c2cccc([N+](=O)[O-])c2)CC3[C@H]1C5 (stereo partly specified) please. 49.3

State its Max response: CC(=O)O[C@H]1[C@@H](c2ccccc2)CC2[C@H]3Cc4ccc(O)c5c4[C@@]2(CCN3C)[C@H]1O5 (stereo partly specified) 24

For CN1CC[C@]23c4c5ccc(O)c4O[C@H]2[C@@H](O)[C@@H](c2ccccc2)CC3[C@H]1C5 (stereo partly specified) , write its Max response. 23.2

Give the measured Max response for CN1CC[C@]23c4c5ccc(O)c4O[C@H]2[C@@H](O)[C@@H](c2ccc(Br)cc2)CC3[C@H]1C5 (stereo partly specified) 10

Respond only with Max response recorded for `CN1CC[C@]23c4c5ccc(O)c4O[C@H]2C(=O)[C@@H](c2ccccc2)C[C@H]3[C@H]1C5` 53.9

Consider the compound CN1CC[C@]23c4c5ccc(O)c4O[C@H]2C(=O)C(c2ccccc2)(c2ccccc2)CC3[C@H]1C5 (stereo partly specified) and give its recorded Max response. 9.7

###

Experimental target: Mu-type opioid receptor (Cavia porcellus) (UniProt P97266)
Sequence (P97266 whole entry): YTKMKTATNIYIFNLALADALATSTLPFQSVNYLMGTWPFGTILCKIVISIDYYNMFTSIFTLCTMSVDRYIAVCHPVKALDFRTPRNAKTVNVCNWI
Run description: Compound was tested for opioid antagonist activity in the electrically stimulated GPI preparation, against morphine (Opioid receptor mu 1)
Type: functional
Property measured: IC50 ratio
Enter a number only.

State measured IC50 ratio of the compound `CN1CC[C@]23c4c5ccc(O)c4O[C@H]2C(=O)[C@@H](c2ccccc2)C[C@H]3[C@H]1C5` with Mu-type opioid receptor (Cavia porcellus) (UniProt P97266). 1.05

Tell me its IC50 ratio on Mu-type opioid receptor (Cavia porcellus) (UniProt P97266): CN1CC[C@]23c4c5ccc(O)c4O[C@H]2C(=O)C(c2ccccc2)(c2ccccc2)CC3[C@H]1C5 (stereo partly specified) 1.69

Send back Mu-type opioid receptor (Cavia porcellus) (UniProt P97266) IC50 ratio of CN1CC[C@]23c4c5ccc(O)c4O[C@H]2[C@@H](O)[C@@H](c2cccc([N+](=O)[O-])c2)CC3[C@H]1C5 (stereo partly specified) only. 0.34

Name the recorded IC50 ratio of CC(=O)O[C@H]1[C@@H](c2ccccc2)CC2[C@H]3Cc4ccc(O)c5c4[C@@]2(CCN3C)[C@H]1O5 (stereo partly specified) , assay system Mu-type opioid receptor (Cavia porcellus) (UniProt P97266). 0.9

Fill in IC50 ratio for CN1CC[C@]23c4c5ccc(O)c4O[C@H]2[C@@H](O)[C@@H](c2ccc(Br)cc2)CC3[C@H]1C5 (stereo partly specified) tested with Mu-type opioid receptor (Cavia porcellus) (UniProt P97266). 1.2

Name the recorded IC50 ratio of CN1CC[C@]23c4c5ccc(O)c4O[C@H]2[C@@H](O)[C@@H](c2ccccc2)CC3[C@H]1C5 (stereo partly specified) , assay system Mu-type opioid receptor (Cavia porcellus) (UniProt P97266). 1.85

###

Assignment: determine reported IC50 ratio for the given molecules.
Experimental target: Delta-type opioid receptor (Mus musculus)
Run description: Inhibition of [D-Ala2,D-Leu5]-enkephalin (DADLE) activity in the electrically stimulated mouse vas deferens

Name the recorded IC50 ratio of the molecule listed here: O=[N+]([O-])c1cccc([C@H]2CC3[C@H]4Cc5ccc(O)c6c5[C@@]3(CCN4C3CC3)[C@@H](O6)[C@H]2O)c1 (some centres undefined) 4.17

# return recorded IC50 ratio for entry CN1CC[C@]23c4c5ccc(O)c4O[C@H]2[C@@H](O)[C@@H](c2cccc([N+](=O)[O-])c2)CC3[C@H]1C5 (some centres undefined) 0.99

Please report the measured IC50 ratio for CN1CC[C@]23c4c5ccc(O)c4O[C@H]2[C@@H](O)[C@@H](c2ccc(Br)cc2)CC3[C@H]1C5 (some centres undefined) 1.17

Find the measured IC50 ratio of `O=C1[C@@H](c2ccccc2)C[C@H]2[C@H]3Cc4ccc(O)c5c4[C@@]2(CCN3C2CC2)[C@H]1O5` and report it. 17.6

For the molecule CC(=O)O[C@H]1[C@@H](c2ccccc2)CC2[C@H]3Cc4ccc(O)c5c4[C@@]2(CCN3C2CC2)[C@H]1O5 (some centres undefined) , report IC50 ratio. 6.38

Supply IC50 ratio value. Item: `CN1CC[C@]23c4c5ccc(O)c4O[C@H]2C(=O)[C@@H](c2ccccc2)C[C@H]3[C@H]1C5` 0.97

// fetch IC50 ratio given entry Oc1ccc2c3c1O[C@H]1[C@@H](O)[C@@H](c4ccccc4)CC4[C@@H](C2)N(C2CC2)CC[C@@]341 (some centres undefined) 3.03

Give me measured IC50 ratio, please, for this molecule: CN1CC[C@]23c4c5ccc(O)c4O[C@H]2C(=O)C(c2ccccc2)(c2ccccc2)CC3[C@H]1C5 (some centres undefined) 2.34

Identify the reported IC50 ratio for the following entry. CC(=O)O[C@H]1[C@@H](c2ccccc2)CC2[C@H]3Cc4ccc(O)c5c4[C@@]2(CCN3C)[C@H]1O5 (some centres undefined) 1.02
